Experiment: chemical genetic growth profiling, strain panel (AID 1159580);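 note: tested at 20 µM; growth read once vehicle control cultures reached saturation at 30 °C; 1 = growth at the plate median or of vehicle wells; lower values mean less growth of the strain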
Settings: S. cerevisiae deletion strains, growth OD, locus YER167W, strain BCK2, active compounds read low
About 2,000 (36%) of roughly 5,500 compounds were called active. Inconclusive results (about 18%) are left out. This is one part of the list.
QUANTITY NAME: normalized growth

Previously resolved entries follow.
{"columns": ["MOLECULE", "normalized growth"],
 "data": [
  ["C=C[C@@](C)(O)CCC1C(=C)CCC2[C@@](C)(CO)CCC[C@]12C (some centres not stated)", "1.01 (inactive)"],
  ["CCC(C)C(=O)O[C@@H]1C[C@@]2(C)[C@H](c3ccoc3)OC(=O)CC23OC2(C)OC34[C@H](OC(=O)C(C)C)[C@@]3(O)[C@@H](OC(=O)C5(C)OC5C)[C@@]5(C)C[C@]3(O)[C@@](C)([C@H]5CC(=O)OC)C14O2 (some centres not stated)", "0.995 (inactive)"]
]}

Please find the next molecule below.
Prompt: Can you share its normalized growth? I mean this molecule: CCC(C)C(=O)OC1CC2(C)C(c3ccoc3)OC(=O)CC23OC2(C)OC34C(OC(=O)C(C)C)C3(O)C(OC(=O)C5(C)OC5C)C5(C)CC3(O)C(C)(C5C(=O)OC)C14O2 (configuration not stated)
Response: 1.02 (inactive)

---

# key: entry, value: normalized growth
Assay: chemical genetic growth profiling, strain panel (AID 1159580)
Details: S. cerevisiae deletion strains, growth OD, locus YJL154C, strain vps35, active compounds read low
The campaign covered roughly 5,500 compounds. About 2,000 (36%) were called active. Not shown: some 18% with an inconclusive outcome. The list shows a part of the results.

{"columns": ["COMPOUND", "normalized growth"],
 "data": [
  ["COc1cc([C@@H]2c3cc4c(cc3C(OC3O[C@@H]5COC(C)O[C@H]5[C@H](O)[C@H]3O)C3COC(=O)[C@@H]32)OCO4)cc(OC)c1O (stereo partly drawn)", "1.02 (inactive)"]
]}

Prompt: Can you share its normalized growth? I mean this compound: "Clc1ccc(C(c2ccc(Cl)cc2)C(Cl)(Cl)Cl)cc1"
Response: 1.02 (inactive)

Prompt: Can you share its normalized growth? I mean this compound: "CNC(=O)O/N=C(\C)SC"
Response: 0.999 (inactive)

Prompt: Can you share its normalized growth? I mean this compound: "COc1ccc2c(c1)OC/C(=C/c1ccc(OC)c(OC)c1)C2=O"
Response: 0.993 (inactive)

Prompt: Can you share its normalized growth? I mean this compound: COC(=O)[C@@H]1OC(=O)C2OC23[C@@]1(C)CCC1[C@]2(C)C(C[C@H](O)[C@]13C)C(C)(C)[C@H](OC(C)=O)C[C@@H]2OC(C)=O (stereo partly drawn)
Response: 1.01 (inactive)

Prompt: Can you share its normalized growth? I mean this compound: Cn1c(=O)c2c(ncn2CC(O)CO)n(C)c1=O (stereo not drawn)
Response: 0.972 (inactive)

Prompt: Can you share its normalized growth? I mean this compound: CC(C)NCC(O)COc1cccc2[nH]ccc12 (stereo not drawn)
Response: 0.98 (inactive)

Prompt: Can you share its normalized growth? I mean this compound: C=C[C@@](C)(O)CCC1C(=C)CCC2[C@@](C)(CO)CCC[C@]12C (stereo partly drawn)
Response: 1.09 [resistant] (active)

Prompt: Can you share its normalized growth? I mean this compound: "O=S(=O)(O)CCS"
Response: 0.97 (inactive)

Prompt: Can you share its normalized growth? I mean this compound: C=C[C@@](C)(O)CCC1C(=C)C[C@H](O)C2C(C)(C)CCCC12C (stereo partly drawn)
Response: 0.997 (inactive)

Prompt: Can you share its normalized growth? I mean this compound: "COc1ccc(C(c2ccc(OC)cc2)C(Cl)(Cl)Cl)cc1"
Response: 1.01 (inactive)

Prompt: Can you share its normalized growth? I mean this compound: COc1cc([C@@H]2c3cc4c(cc3[C@@H](O)C3COC(=O)C32)OCO4)cc(OC)c1O (stereo partly drawn)
Response: 0.985 (inactive)

---

Assay: chemical genetic growth profiling, strain panel (AID 1159580)
Conditions: S. cerevisiae deletion strains, growth OD, locus YNL197C, strain WHI3, active compounds read low
About 2,000 (36%) of roughly 5,500 compounds were called active. Another 18% or so got no clear call; they are omitted. This is one part of the list.
Field: label. Allowed values: Yes (normalized growth < 1) or No (normalized growth >= 1).

{"columns": ["MOLECULE", "LABEL VALUE"],
 "data": [
  ["CCCCCCCCC(=O)NCc1ccc(O)c(OC)c1", "Yes"]
]}

Prompt: Bench note: check whether O=C1C2C=CC=CC2=NC(=S)N1CCN1CCC(=C(c2ccc(F)cc2)c2ccc(F)cc2)CC1 (stereo unspecified) shows normalized growth below 1
Response: No

---

Assay: chemical genetic growth profiling, strain panel (AID 1159580)
Settings: S. cerevisiae deletion strains, growth OD, locus YOR290C, strain snf2, active compounds read low
Hit rate of the full screen: of about 5,500 compounds, about 2,000 (36%) were called active. Another 18% or so got no clear call; they are omitted. This is one part of the list.
QUANTITY NAME: normalized growth
Please give the numeric answer without any surrounding text.

Previously resolved entries follow.
{"columns": ["COMPOUND", "normalized growth"],
 "data": [
  ["O=C(/C=C/c1ccc(O)c(O)c1)OCCc1ccccc1", 0.748],
  ["C[C@]12CCC(=O)C=C1C=CC1C2CC[C@@]2(C)C1CC[C@@]21CCC(=O)O1 (stereo partly specified)", 0.947],
  ["COc1ccc2c(c1)OC1(O)COc3cc(OC)c(OC)cc3C1=C2 (stereo unspecified)", 0.998],
  ["CNCCC(Oc1ccc(C(F)(F)F)cc1)c1ccccc1 (stereo unspecified)", 0.981],
  ["COc1cc2nc(N(C)CCCNC(=O)C3CCCO3)nc(N)c2cc1OC (stereo unspecified)", 1.03]
]}

Prompt: Can you share its normalized growth? I mean this compound: "COc1cc(CNC(=O)CCCC/C=C/C(C)C)ccc1O"
Response: 1

Prompt: Can you share its normalized growth? I mean this compound: "O=C(c1ccc(OCCN2CCCCC2)cc1)c1c(-c2ccc(O)cc2)sc2cc(O)ccc12"
Response: 0.995

Prompt: Can you share its normalized growth? I mean this compound: C=C[C@@](C)(O)CCC1C(=C)C[C@H](OC(C)=O)C2C(C)(C)CCCC12C (stereo partly specified)
Response: 0.946

Prompt: Can you share its normalized growth? I mean this compound: C=CC[C@]1(O)CCC2C3CCC4=CC(=O)CCC4=C3C=C[C@@]21C (stereo partly specified)
Response: 0.953

Prompt: Can you share its normalized growth? I mean this compound: "O=C(O)/C=C/c1ccc(O)c(O)c1"
Response: 1.01

Prompt: Can you share its normalized growth? I mean this compound: "CCCCCCCCC(=O)NCc1ccc(O)c(OC)c1"
Response: 0.978

---

# key: entry, value: normalized growth
Assay: chemical genetic growth profiling, strain panel (AID 1159580);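 note: tested at 20 µM; growth read once vehicle control cultures reached saturation at 30 °C; 1 = growth at the plate median or of vehicle wells; lower values mean less growth of the strain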
Settings: S. cerevisiae deletion strains, growth OD, locus YHR142W, strain chs7, active compounds read low
Hit rate of the full screen: of about 5,500 compounds, about 2,000 (36%) were called active. Inconclusive results (about 18%) are left out. Some of the results follow.
Please give the numeric answer without any surrounding text.

Prompt: Can you share its normalized growth? I mean this molecule: C=C1C2CC[C@@]3(C)[C@H](c4ccoc4)OC(=O)C[C@]13O[C@H]1CC(=O)C(C)(C)[C@H](C(OC(C)=O)C(=O)OC)[C@@]21C (stereo partly specified)
Response: 0.977

Prompt: Can you share its normalized growth? I mean this molecule: "Nc1nc(=S)c2[nH]cnc2[nH]1"
Response: 0.945

Prompt: Can you share its normalized growth? I mean this molecule: CC[C@]1(O)CC2CN(CCc3c([nH]c4ccccc34)[C@@](C(=O)OC)(c3cc4c(cc3OC)N(C)[C@H]3[C@@](O)(C(=O)OC)[C@H](OC(C)=O)[C@]5(CC)C=CCN6CC[C@]43[C@@H]65)C2)C1 (stereo partly specified)
Response: 1.02

---

Assay: chemical genetic growth profiling, strain panel (AID 1159580);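 note: tested at 20 µM; growth read once vehicle control cultures reached saturation at 30 °C; 1 = growth at the plate median or of vehicle wells; lower values mean less growth of the strain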
Settings: S. cerevisiae deletion strains, growth OD, locus YLL026W, active compounds read low
Out of some 5,500 compounds screened, about 2,000 (36%) were called active. Another 18% or so got no clear call; they are omitted. This is one part of the list.
QUANTITY NAME: normalized growth
Please give the numeric answer without any surrounding text.

Prompt: Can you share its normalized growth? I mean this compound: "Oc1ccc2c(c1)O[C@H](c1ccc(O)c(O)c1)[C@@H](O)C2"
Response: 1.03

---

# key: entry, value: normalized growth
Test: chemical genetic growth profiling, strain panel (AID 1159580);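 note: tested at 20 µM; growth read once vehicle control cultures reached saturation at 30 °C; 1 = growth at the plate median or of vehicle wells; lower values mean less growth of the strain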
Settings: S. cerevisiae deletion strains, growth OD, locus YOR083W, strain WHI5, active compounds read low
The campaign covered roughly 5,500 compounds. About 2,000 (36%) were called active. About 18% were inconclusive and are not listed. This is one part of the list.
Please give the numeric answer without any surrounding text.

Previously resolved entries follow.
{"columns": ["MOLECULE", "normalized growth"],
 "data": [
  ["CN(C)CCOC(c1ccc(Cl)cc1)c1ccccn1 (stereo not given)", 1.03],
  ["COC(=O)C1=COC(OC2OC(CO)C(O)C(O)C2O)C2C(C)CC(=O)C12 (stereo not given)", 1.04],
  ["CCn1cc(C(=O)O)c(=O)c2cc(F)c(N3CCNC(C)C3)c(F)c21 (stereo not given)", 0.897],
  ["C#CCCCCCCCCCCCc1ccco1", 0.985],
  ["COC(=O)C[C@H]1C2(C)CC34OC5(C)O[C@@]6([C@H](OC(C)=O)C(OC(C)=O)[C@]7(C)C(/C(=C(/O)C(C)C)C(=O)O[C@H]7c7ccoc7)[C@@]6(O5)[C@H](OC(C)=O)[C@@]3(O)C2OC(=O)C(C)C)[C@]14C (stereo not given in full)", 1.02],
  ["Oc1ccc2c(c1)O[C@H](c1ccc(O)c(O)c1)[C@@H](O)C2", 1.02]
]}

Prompt: Can you share its normalized growth? I mean this molecule: "Clc1ccc(C(c2ccc(Cl)cc2)C(Cl)(Cl)Cl)cc1"
Response: 1.01

From: PubChem BioAssay AID1159580
